target: thromboxane A2 synthetase (Homo sapiens); construct: Indomethacin pretreated human platelet microsomes; test: Thromboxane A2 (T×A2) synthetase inhibition (T×B2 production, radioimmunoassay); conditions: human platelet microsomes, in vitro; read-out: T×A2 synthetase inhibitory activity: IC50
Sequence (P24557 whole entry): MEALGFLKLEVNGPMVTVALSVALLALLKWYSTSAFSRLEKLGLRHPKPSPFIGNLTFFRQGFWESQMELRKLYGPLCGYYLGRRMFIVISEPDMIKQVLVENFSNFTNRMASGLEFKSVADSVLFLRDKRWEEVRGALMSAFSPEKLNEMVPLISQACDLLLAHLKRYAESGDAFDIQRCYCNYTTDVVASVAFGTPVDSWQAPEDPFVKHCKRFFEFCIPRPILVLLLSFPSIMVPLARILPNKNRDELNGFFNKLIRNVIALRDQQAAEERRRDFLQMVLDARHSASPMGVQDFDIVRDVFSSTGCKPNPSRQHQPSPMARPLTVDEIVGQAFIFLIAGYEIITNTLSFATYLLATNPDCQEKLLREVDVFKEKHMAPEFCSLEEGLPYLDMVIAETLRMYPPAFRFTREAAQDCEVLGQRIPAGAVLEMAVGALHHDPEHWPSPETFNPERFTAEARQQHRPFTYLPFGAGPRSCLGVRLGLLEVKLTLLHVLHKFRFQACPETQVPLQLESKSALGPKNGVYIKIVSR
Reported values of IC50 for individual entries
OBSERVATION_TYPE: IC50

>>> df
                                   molecule  result_value
0  C=C(c1cccnc1)c1cc(CCNS(=O)(=O)c2ccc(Cl)cc2)cc(CCC(=O)O)c1 [Example 83]      0.053 µM
1  O=C(O)CCc1cc(CCNS(=O)(=O)c2ccc(Cl)cc2)cc(Cc2cccnc2)c1 [Example 48]      0.039 µM
2  C=C(c1cccnc1)c1cc(CCNS(=O)(=O)c2ccccc2)cc(CCC(=O)O)c1 [Example 82]       0.05 µM
3  CC(c1cccnc1)c1cc(CCNS(=O)(=O)c2ccccc2)cc(CCC(=O)O)c1 (stereo not shown) [Example 84]      0.044 µM

* * *

Reported values of log10 Kb for individual entries
target: thromboxane A2 receptor (Rattus norvegicus); construct: Spirally cut rat aortic strips; from tissue; host or cells: rat aorta (spirally cut strips); experiment: Thromboxane A2 receptor antagonism (U-46619 contraction of rat aortic strips); format: cell-based; settings: agonist U-46619, in vitro, read-out: T×A2 antagonist activity: pA2 (converted)
Sequence (P34978 whole entry): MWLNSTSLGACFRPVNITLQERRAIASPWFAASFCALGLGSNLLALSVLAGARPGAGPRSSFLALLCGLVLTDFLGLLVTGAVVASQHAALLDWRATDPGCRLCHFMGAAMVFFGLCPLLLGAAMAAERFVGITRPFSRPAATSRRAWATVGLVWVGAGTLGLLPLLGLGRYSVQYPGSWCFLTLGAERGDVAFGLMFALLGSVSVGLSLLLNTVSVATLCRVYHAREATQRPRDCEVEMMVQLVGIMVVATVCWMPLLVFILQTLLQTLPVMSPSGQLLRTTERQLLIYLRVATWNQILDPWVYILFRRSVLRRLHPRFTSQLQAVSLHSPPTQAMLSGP
OBSERVATION_TYPE: log10 Kb (log10 of the value in nM)

>>> df
                                   compound                              assay_system  observation_type  result_value
0  CC(c1cccnc1)c1cc(CCNS(=O)(=O)c2ccccc2)cc(CCC(=O)O)c1 (stereo not drawn) [Example 84]  thromboxane A2 receptor (Rattus norvegicus)          log10 Kb         -0.73
1  C=C(c1cccnc1)c1cc(CCNS(=O)(=O)c2ccc(Cl)cc2)cc(CCC(=O)O)c1 [Example 83]  thromboxane A2 receptor (Rattus norvegicus)          log10 Kb         -1.01
2  C=C(c1cccnc1)c1cc(CCNS(=O)(=O)c2ccccc2)cc(CCC(=O)O)c1 [Example 82]  thromboxane A2 receptor (Rattus norvegicus)          log10 Kb         -0.12
3  O=C(O)CCc1cc(CCNS(=O)(=O)c2ccc(Cl)cc2)cc(Oc2cccnc2)c1 [Example 62]  thromboxane A2 receptor (Rattus norvegicus)          log10 Kb         -0.40
4  O=C(O)CCc1cc(CCNS(=O)(=O)c2ccccc2)cc(Oc2cccnc2)c1 [Example 61]  thromboxane A2 receptor (Rattus norvegicus)          log10 Kb         -0.06
5  CC(c1cccnc1)c1cc(CCNS(=O)(=O)c2ccc(Cl)cc2)cc(CCC(=O)O)c1 (stereo not drawn) [Example 85]  thromboxane A2 receptor (Rattus norvegicus)          log10 Kb         -1.16
6  O=C(O)CCc1cc(CCNS(=O)(=O)c2ccc(Br)cc2)cc(Cc2cccnc2)c1 [Example 49]  thromboxane A2 receptor (Rattus norvegicus)          log10 Kb         -0.44
7  CC(O)(c1cccnc1)c1cc(CCNS(=O)(=O)c2ccc(Cl)cc2)cc(CCC(=O)O)c1 (stereo not drawn) [Example 67]  thromboxane A2 receptor (Rattus norvegicus)          log10 Kb         -0.07
8  O=C(O)CCc1cc(CCNS(=O)(=O)c2ccc(Cl)cc2)cc(Cc2cccnc2)c1 [Example 48]  thromboxane A2 receptor (Rattus norvegicus)          log10 Kb         -0.39
